- tested_on: AQ STING (G230A-R293Q) (Homo sapiens, UniProt Q86WV6, G230A/H232R/R293Q)
- Construct: 8xHis (N, cleaved yes); SUMO (N, cleaved yes); made in house; host or cells: E. coli Rosetta-gami B (DE3)
- Sequence (Q86WV6 140-343 G230A/H232R/R293Q): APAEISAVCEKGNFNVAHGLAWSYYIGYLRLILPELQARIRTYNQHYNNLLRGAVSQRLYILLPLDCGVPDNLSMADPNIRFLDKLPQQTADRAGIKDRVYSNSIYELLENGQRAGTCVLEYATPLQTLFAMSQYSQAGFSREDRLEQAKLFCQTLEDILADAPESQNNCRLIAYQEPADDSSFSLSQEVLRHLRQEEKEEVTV
- protocol_text: Differential Scanning Fluorimetry with AQ STING
- Assay type: binding
- measurement_setup: thermal shift vs apoprotein; 150 µM CDN; truncated human AQ STING 0.1 mg/ml; read-out: DSF ΔTm AQ STING
endpoint_label: ΔTm at 150 µM
Provide the measurement as a number trailed by its unit.

Reference set, count: 5
Nc1nc2c(ncn2[C@@H]2O[C@@H]3/C=C\P(=O)(O)O[C@H]4[C@@H](N)[C@H](n5cnc6c(N)ncnc65)O[C@@H]4COP(=O)(O)O[C@H]3[C@H]2O)c(=O)[nH]1    2.9 °C
Nc1nc(N)c2ncn([C@@H]3O[C@@H]4COP(=O)(O)O[C@H]5[C@@H](O)[C@H](n6cnc7c(=O)[nH]c(N)nc76)O[C@@H]5/C=C\P(=O)(O)O[C@H]4[C@H]3O)c2n1 (stereo in doubt)    3.5 °C
Nc1ncnc2c1ncn2[C@@H]1O[C@@H]2/C=C/P(=O)(O)O[C@H]3[C@@H](F)[C@H](n4cnc5c(N)ncnc54)O[C@@H]3COP(=O)(O)O[C@H]2[C@H]1F    11.6 °C
Nc1nc2c(ncn2[C@@H]2O[C@@H]3/C=C/P(=O)(O)O[C@H]4[C@@H](F)[C@H](n5cnc6c(=O)[nH]c(N)nc65)O[C@@H]4COP(=O)(O)O[C@H]3[C@H]2F)c(=O)[nH]1    10.6 °C
Nc1nc(N)c2ncn([C@@H]3O[C@@H]4COP(=O)(O)O[C@H]5[C@@H](O)[C@H](n6cnc7c(=O)[nH]c(N)nc76)O[C@@H]5/C=C\P(=O)(O)O[C@H]4[C@H]3F)c2n1    8 °C

Batch request: ΔTm at 150 µM per item, same order as input.
1. Nc1nc2c(ncn2[C@H]2C[C@@H]3OP(=O)(O)/C=C/[C@H]4O[C@@H](n5cnc6c(N)ncnc65)[C@H](F)[C@@H]4OP(=O)(O)OC[C@H]3O2)c(=O)[nH]1
2. Nc1nc2c(ncn2[C@@H]2O[C@@H]3/C=C/P(=O)(O)O[C@H]4C[C@H](n5cnc6c(N)ncnc65)O[C@@H]4COP(=O)(O)O[C@H]3[C@H]2O)c(=O)[nH]1

Solution:
11.3 °C
8.6 °C
